- experimental.system: T1, human Myl9-His (human, UniProt P24844 2-172, limits assumed)
- T1 construct: Made in E. coli; the GST tag was cleaved with PreScission Protease
- T1 sequence: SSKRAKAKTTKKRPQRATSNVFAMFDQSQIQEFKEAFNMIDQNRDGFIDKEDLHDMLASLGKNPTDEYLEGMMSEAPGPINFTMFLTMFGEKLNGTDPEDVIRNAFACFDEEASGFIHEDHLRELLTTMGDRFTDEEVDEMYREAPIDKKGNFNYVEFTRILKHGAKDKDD
- assay.notes: ELISA, human Myl9-His coated, anti-human IgG-HRP

| binder | binding result |
| --- | --- |
| Humanized antibody No. 121 (antibody, human IgG2, kappa, V domains shown, human IgG2 (V234A, G237A, C-terminal Lys deleted) / kappa; Expi293F, Protein A purified; also called HA1-6/L4-2) VH: QVQLVQSGAEVKKPGSSVKVSCKASGYTFTDYEMHWVRQAPGQGLEWMGAIDPETGGTAYAQKFQGRVTITADKSTSTAYMELRSLRSEDTAVYYCADYDYDGFAYWGQGTLVTVSS VL: DIVMTQTPLSSPVTLGQPASISCRSSQSLVHSNGNTYLHWYQQRPGQPPRLLISKVSNRFSGVPDRFSGSGAGTDFTLKISRVEAEDVGVYFCSQNTHVPPLTFGGGTKVEIKR | binds |
| Humanized antibody No. 115 (antibody, human IgG2, kappa, V domains shown, human IgG2 (V234A, G237A, C-terminal Lys deleted) / kappa; Expi293F, Protein A purified; also called HK1-A/L1-5) VH: QVQLVQSGAEVKKPGSSVKVSCKASGYTFSDYEMHWVRQAPGQGLEWIGAIDPETGGTAYNQKFKGRATITADKSTSTAYMELRSLRSEDTAVYYCTDYDYDGFAYWGQGTLVTVSS VL: DIVMTQSPLSLSITPGEQASISCRSSQSLVHSNGNTYLHWYLQKPGQSPQLLISKVSNRFSGVPDRFSGSGSGTDFTLKISRVEAEDVGVYFCSQNTHVPPLTFGGGTKVEIKR | binds |
| Humanized antibody No. 111 (antibody, human IgG2, kappa, V domains shown, human IgG2 (V234A, G237A, C-terminal Lys deleted) / kappa; Expi293F, Protein A purified; also called HA1-4/L1-5) VH: QVQLVQSGAEVKKPGSSVKVSCKASGYTFTDYEMHWVRQAPGQGLEWMGAIDPETGGTAYAQKFQGRATITADKSTSTAYMELRSLRSEDTAVYYCADYDYDGFAYWGQGTLVTVSS VL: DIVMTQSPLSLSITPGEQASISCRSSQSLVHSNGNTYLHWYLQKPGQSPQLLISKVSNRFSGVPDRFSGSGSGTDFTLKISRVEAEDVGVYFCSQNTHVPPLTFGGGTKVEIKR | binds |

Entry source: patent US20190002588A1
